B1: KRT71 (parent)
chain: ELRNVQDVVEDYKKRYEEEINKRT

# Variants of: B1
# EXPERIMENTAL_DETAILS: protein stability index of a GFP-peptide fusion (GPS, HEK-293T) (PSI 1-6); higher = more stable;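 note: lentivirally expressed fusions sorted by FACS into six bins by GFP to DsRed ratio, PSI derived from sequencing read proportions per bin multiplied by bin number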
# SETTINGS: c terminus: a fixed tail appended
Use Criterion met when the recorded protein stability index is no lower than 4; use Criterion not met when it is lower.

Field: example entries. Status: answers known.
SEQ_STRING	LABEL_CLASS
ELRNVQDVLEDYKKRYEEEINKRT [V9L]	Criterion not met
ELRNVQDVVEDYKKRYQEEINKRT [E17Q]	Criterion not met
ELRNVQDVVEDYKKRYEEMINKRT [E19M]	Criterion not met
ELRNVQDVVEDYKKRYEEEINKRF [T24F]	Criterion not met

Continue with the variant presented below.
q: Could you tell me if the measured protein stability index of ELFNVQDVVEDYKKRYEEEINKRT [R3F] reaches 4 or more?
a: Criterion met
